Experiment: THP-1 cell cytotoxicity, dose response, cytotoxicity control for non-replicating M. tuberculosis project (AID 489025)
Type: functional
Active and inactive are the calls of the source. The rule behind the calls is not given here.
Reported CC50 values follow for various molecules

Solved entries:
Qu. Answer with reported CC50 of Cc1cc(N/N=C/c2ccccc2O)c2ccccc2n1
Ans. 25.6 µM (active)

Qu. Answer with reported CC50 of COc1cccc2sc(N3CCN(C(=O)c4ccc([N+](=O)[O-])o4)CC3)nc12
Ans. 36.5 µM (active)

Qu. Answer with reported CC50 of Cc1ccc(C(=O)C=CNNC(=O)c2ccccc2)cc1
Ans. > 40 µM (active)

Qu. Answer with reported CC50 of O=C(Nc1ccc(Cc2ccncc2)cc1)c1ccc([N+](=O)[O-])o1
Ans. 5.59 µM (active)

Qu. Answer with reported CC50 of COc1ccc(-c2nnn(CC(=O)OC3CCCCC3)n2)cc1OC
Ans. > 40 µM (active)

Let's switch to this molecule now.
Qu. Answer with reported CC50 of C=CCN1C(=O)/C(=C2/C(=O)Nc3ccccc32)c2ccccc21
Ans. 19.7 µM (active)
